test system: CAKI-1 renal; experiment: NCI-60 one-dose screen, 48 h (100 = growth as untreated, 0 = no growth, -100 = all killed); settings: 10 µM unless noted
Compounds without any hit were thinned out: in the full panel of roughly 83,000, 20% have a hit.
Grouping rule (growth): b0 (below 60%), b1 (60% to below 80%), b2 (80% or more)

COc1cc(-c2n/c(=C\c3c(O)[nH]c4ccc(Cl)cc34)cc3c2=Nc2ccccc2-3)ccc1F | b1

Field: next compound
# bin lookup: classify COc1ccc(-c2cnc3c(-c4cccc5ncccc45)cnn3c2)cc1 by its growth
b0

* * *

tested on: ACHN renal; assay: NCI-60 one-dose screen, 48 h; settings: 10 µM unless noted
Compounds without any hit were thinned out: in the full panel of roughly 83,000, 20% have a hit. Activity calls are given as the source filed them. The calls were made as follows: active = growth percent below 10; inactive = the rest.
Allowed answers: Y (active), N (inactive)

Use these answered entries as a reference point.
CCCN1[C@@H]2CC[C@H]1/C(=C\c1ccc(OC)c(OC)c1)C(=O)/C2=C/c1ccc(OC)c(OC)c1 | N
O=C1c2ccccc2CCC12OC2c1cn(-c2ccccc2)nc1-c1ccc(Cl)cc1 (centres undefined) | N
N#Cc1cc(-c2nc3ccccc3s2)c(=O)n(NS(=O)(=O)c2ccccc2)c1N | N
O=[N+]([O-])c1ccc(NC(=S)N/N=C/c2cc3ccccc3n3nnnc23)cc1 | N
O=C1c2ccc3c4c(ccc(c24)C(=O)N1CCCNCc1ccccc1F)C(=O)N(CCCNCc1ccccc1F)C3=O | Y

Per the assay record, what outcome was assigned to O=C(Nc1ccccc1C(=O)N/N=C(\c1ccccc1)c1ccccn1)c1ccc(F)cc1 ?
N
